Target: T1, MDM2_(D. rerio) SWIB domain (zebra fish (Danio rerio))
T1 construct: four residues left at the N-terminus after PreScission digestion, GPGS or GPMG; which of the two for this variant is in Excel File 1 in Data S1; MDM2, zebra fish, SWIB domain; Construct limits are in Excel File 1 in Data S1; also called zebra fish MDM2; source: E. coli BL21 (DE3) or BL21 (DE3) pLys, purified (Ni Sepharose or glutathione agarose, PreScission cleavage, SEC); not shown: …
T1 sequence (O42354 whole entry, looked up): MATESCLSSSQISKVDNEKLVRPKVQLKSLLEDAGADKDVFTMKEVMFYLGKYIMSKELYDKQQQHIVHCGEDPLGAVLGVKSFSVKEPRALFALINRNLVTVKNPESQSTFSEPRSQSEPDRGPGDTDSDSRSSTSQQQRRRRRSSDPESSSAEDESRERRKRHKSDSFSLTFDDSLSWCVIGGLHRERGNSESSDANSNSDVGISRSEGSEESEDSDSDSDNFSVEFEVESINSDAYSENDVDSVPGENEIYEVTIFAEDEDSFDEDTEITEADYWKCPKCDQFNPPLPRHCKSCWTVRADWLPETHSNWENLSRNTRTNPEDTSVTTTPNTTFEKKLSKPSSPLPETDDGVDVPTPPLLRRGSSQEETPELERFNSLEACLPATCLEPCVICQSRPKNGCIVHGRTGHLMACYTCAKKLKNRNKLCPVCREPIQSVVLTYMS
Assay: stopped-flow fluorescence kinetics; 10°C, 20 mM sodium phosphate pH 7.4, 150 mM NaCl, 1 mM TCEP; Trp23 emission; MDM2 constant at 0.5–2 μM, p53TAD varied 1–10 μM for k on; k off from displacement of the 1 μM:1 μM complex by 10–20 μM dansylated human p53TAD peptide; K D = k off/k on
Conditions: both partners purified
Ends that are not written are not given here.
Each entry below lists one item and its recorded pKd value.
Note on units: pKd is unitless, being -log10 of a concentration expressed in mol/L.

Q: Form field: reported pKd of DSQETFAELWEKN (not fully specified (N-terminus); also: acetylated, site not given here) [p53TAD_(D. rerio)^insertT18]
A: 5.64

Q: Form field: reported pKd of SQETFSDLWNML (not fully specified (N-terminus); also: acetylated, site not given here) [p53TAD_(Fishes/Tetrapods)^ML]
A: 7.03

These measurements were taken from paper PMC10303687.
